system.tested: T1, human FLT3 (human, UniProt P36888 27-541, limits assumed)
T1 construct: Soluble analyte hFLT3 in SPR; also called hFLT3; huFlt3
T1 sequence: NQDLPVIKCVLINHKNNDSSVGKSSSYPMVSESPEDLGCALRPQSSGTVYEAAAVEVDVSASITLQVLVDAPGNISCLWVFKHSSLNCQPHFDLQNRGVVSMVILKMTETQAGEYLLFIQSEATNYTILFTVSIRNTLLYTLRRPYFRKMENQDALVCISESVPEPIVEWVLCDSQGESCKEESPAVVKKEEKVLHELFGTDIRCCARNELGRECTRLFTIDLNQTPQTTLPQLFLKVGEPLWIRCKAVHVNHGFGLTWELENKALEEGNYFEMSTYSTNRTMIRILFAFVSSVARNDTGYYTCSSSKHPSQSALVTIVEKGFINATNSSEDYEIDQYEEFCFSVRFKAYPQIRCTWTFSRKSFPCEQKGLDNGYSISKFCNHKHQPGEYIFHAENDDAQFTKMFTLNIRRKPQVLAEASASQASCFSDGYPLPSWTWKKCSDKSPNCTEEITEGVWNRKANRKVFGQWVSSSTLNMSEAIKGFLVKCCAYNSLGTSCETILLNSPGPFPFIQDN
test.details: SPR Biacore T200, 37C; scFv format
recorded.metric: t1/2 (min)
Please give a number only; it is taken to be in min.

Task: # query: t1/2 of entry P5A3 (scFv format) (scFv, not shown: a dimerising Fc or GST; small tags and cut ends) scFv: QVQLVQSGAEVKKPGSSVKVSCKASGGTFSSYYIGWVRQAPGQGLEWMGGIIPWFGTANYAQKFQGRVTITADKSTNTAYMELSSLRSEDTAVYYCAADHHDSPSGYTSGGFDVWGQGTLVTVSSGGGGSGGGGSGGGGSQSALTQPASVSGSPGQSITISCTGTSSDVGGYNYVSWYQQHPGKAPKLMIYEVSKRPSGVPDRFSGSKSGNTASLTVSGLQAEDEADYYCSSYAGSNTVVFGGGTKLTVL
Result: 0.7

Task: # query: t1/2 of entry P3E10 (scFv format) (scFv) scFv: QVQLVQSGAEVKKPGSSVKVSCKASGGTFSSYAIQWVRQAPGQGLEWMGGIVGSWGLANYAQKFQGRVTITTDKSTSTAYMELSSLRSEDTAVYYCATSAFGELASWGQGTLVTVSSGGGGSGGGGSGGGGSEIVLTQSPGTLSLSPGERATLSCRASQSVPSSQLAWYQQKPGQAPRLLIYDASSRATGIPDRFSGSGSGTDFTLTISRLEPEDFAVYYCQQYGSSPLTFGQGTKVEIK
Result: 1

Task: # query: t1/2 of entry P7F9 (scFv format) (scFv) scFv: EVQLLESGGGLVQPGGSLRLSCAASGFTFSSYAMSWVRQAPGKGLEWVSAIGGSGGSTYYADSVKGRFTISRDNSKNTLYLQMNSLRAEDTAMYYCARDYYAFSDPAYGGMDVWGQGTLVTVSSGGGGSGGGGSGGGGSNFMLTQPHSVSESPGKTVTISCTRSSGSIASNYVQWYQQKPGQAPVLVVYDDSDRPSGIPERFSGSNSGNTATLTISRVEAGDEADYYCQVWDSSSDHWVFGGGTKLTVL
Result: 4.8

Next:
Task: # query: t1/2 of entry P9B5 (scFv format) (scFv, not shown: a dimerising Fc or GST; small tags and cut ends) scFv: EVQLLESGGGLVQPGGSLRLSCAASGFIFASYAMSWVRQAPGKGLEWVSEISSSGGSTTYADSVKGRFTISRDNSKNTLYLQMNSLRAEDTAVYYCARDRVMAGLGYDPFDYWGQGTLVTVSSGGGGSGGGGSGGGGSQSVLTQPPSASGTPGQRVTISCSGSSSNIGSNYVYWYQQLPGTAPKLLIYRNNQRPSGVPDRFSGSKSGTSASLAISGLRSEDEADYYCAAWDDSLSGVVFGGGTKLTVL
Result: 16.8
